# Test system: Plasmodium falciparum
# protocol.summary: GSK_TCMDC: Inhibition of Plasmodium falciparum Dd2 in whole red blood cells, using parasite LDH activity as an index of growth. Test compounds present at 2uM
# Format: functional
measurement.name: Inhibition (%)

>>> reported_measurement("COc1ccc2ncc(F)c(CCN3CCC(NCc4cc(F)c5c(c4)OCCO5)CC3)c2n1.Cl")
67
>>> reported_measurement("OC(CNCc1ccccc1OCc1ccccc1)c1cccc(I)c1 (stereo not given)")
100
>>> reported_measurement("O=S(=O)(Nc1cccc(CCN2CCCCC2CCN2CCCC2)c1)c1ccc2ccccc2c1 (stereo not given)")
40
>>> reported_measurement("Oc1ccc(Nc2ccnc3cc(Cl)ccc23)cc1")
97
>>> reported_measurement("CC1(C)N=C(N)N=C(N)N1OCc1ccc2c(c1)OCO2")
86
>>> reported_measurement("COc1cc2nc(N3CCC(CNC(=O)c4ccc(OC(F)(F)F)cc4)CC3)nc(N)c2cc1OC.O=C(O)C(F)(F)F")
98
>>> reported_measurement("O=C(Nc1cccc(C(F)(F)F)c1)NC1CCN(c2ccnc3ccccc23)CC1.O=C(O)C(F)(F)F")
43
>>> reported_measurement("O=C(Nc1cccc(-c2ccc(-c3nc4cc(F)ccc4[nH]3)s2)c1)c1ccncc1")
29
>>> reported_measurement("CC(C)NCc1ccc(-c2ccc(-c3nc4cc(F)ccc4[nH]3)cc2)cc1.O=C(O)C(F)(F)F")
100
>>> reported_measurement("CC(C)(C)c1ccc(-c2nnc(N)nc2N)cc1")
0
